System: P388 mouse leukemia cells
Test Conditions: 92 h
Where a SMILES comes first, the peptide text is derived from it. [ ]: non-standard residue; d: D form. The star is where a group is joined. NHCH2CH2OH = OCCN*; For = O=C*
Quantity Name: cell viability/%

- Compound: "CC(C)C[C@@H](NC(=O)[C@H](C)NC(=O)CNC(=O)[C@@H](NC=O)C(C)C)C(=O)N[C@@H](C)C(=O)N[C@H](CC(C)C)C(=O)N[C@H](C(=O)N[C@@H](C(=O)N[C@@H](Cc1c[nH]c2ccccc12)C(=O)N[C@@H](C(=O)N[C@@H](Cc1c[nH]c2ccccc12)C(=O)N[C@@H](C(=O)N[C@@H](Cc1c[nH]c2ccccc12)C(=O)N[C@@H](C(=O)N[C@@H](Cc1c[nH]c2ccccc12)C(=O)NCCO)C(C)C)[C@H](C)O)C(C)C)C(C)C)C(C)C [compound 8749] (For-VGA[dL]A[dL]V[dV]W[dV]W[dT]W[dV]W-NHCH2CH2OH)"
  Val: "62.2%"

What does the record list as cell viability/% for CC(C)C[C@@H](NC(=O)[C@H](C)NC(=O)[C@H](NC(=O)[C@H](C)NC(=O)CNC(=O)[C@@H](NC=O)C(C)C)C(C)C)C(=O)N[C@H](C(=O)N[C@@H](C(=O)N[C@@H](Cc1c[nH]c2ccccc12)C(=O)N[C@@H](C(=O)N[C@@H](Cc1c[nH]c2ccccc12)C(=O)N[C@@H](C(=O)N[C@@H](Cc1c[nH]c2ccccc12)C(=O)N[C@@H](C(=O)N[C@@H](Cc1c[nH]c2ccccc12)C(=O)NCCO)C(C)C)C(C)C)C(C)C)[C@H](C)O)C(C)C [compound 12283] (For-VGA[dV]A[dL]V[dT]W[dV]W[dV]W[dV]W-NHCH2CH2OH) ?
100.0%

Please look up its cell viability/%: CC(C)C[C@@H](NC(=O)[C@H](C)NC(=O)CNC(=O)[C@@H](NC=O)C(C)C)C(=O)N[C@@H](C)C(=O)N[C@H](CC(C)C)C(=O)N[C@H](C(=O)N[C@H](CC(C)C)C(=O)N[C@@H](Cc1c[nH]c2ccccc12)C(=O)N[C@@H](C(=O)N[C@@H](Cc1c[nH]c2ccccc12)C(=O)N[C@@H](C(=O)N[C@@H](Cc1c[nH]c2ccccc12)C(=O)N[C@@H](C(=O)N[C@@H](Cc1c[nH]c2ccccc12)C(=O)NCCO)C(C)C)C(C)C)C(C)C)C(C)C [compound 5611] (For-VGA[dL]A[dL]V[dL]W[dV]W[dV]W[dV]W-NHCH2CH2OH)
3.9%

// returns reported cell viability/% for input CC(C)C[C@@H](NC(=O)[C@H](C)NC(=O)CNC(=O)[C@@H](NC=O)C(C)C)C(=O)N[C@@H](C)C(=O)N[C@@H](C(=O)N[C@H](C(=O)N[C@@H](C(=O)N[C@@H](Cc1c[nH]c2ccccc12)C(=O)N[C@@H](C(=O)N[C@@H](Cc1c[nH]c2ccccc12)C(=O)N[C@H](CC(C)C)C(=O)N[C@@H](Cc1c[nH]c2ccccc12)C(=O)N[C@@H](C(=O)N[C@@H](Cc1c[nH]c2ccccc12)C(=O)NCCO)C(C)C)C(C)C)C(C)C)C(C)C)C(C)C [compound 4884] (For-VGA[dL]A[dV]V[dV]W[dV]W[dL]W[dV]W-NHCH2CH2OH)
49.1%
